The reported numbers originate from PubChem BioAssay.

Method: E. coli acrAB mutant growth effects, primary screen, E. coli filamentation inducers, strain DRC39, OD650, 48 h (AID 1179);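 also: screen aims at cell division blockers that make cells filament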
Run Conditions: E. coli DRC39 delta-acrAB growth, higher = more signal, called active from +8 up or from −8 down
Quantity Measured: z-score
Give bare numbers.

Example compounds with recorded z-score:
COc1ccc([Si](C)(C)[C@H]2[C@H](CCO)O[C@@]3(C(=O)N(Cc4cccc(NC(=O)[C@H](C)O)c4)c4ccccc43)[C@@H]2C)cc1; 1.14
COc1ccccc1CN1C(=O)c2ccccc2[C@@]2(Cc3ccccc3N(C(C)C)C2=O)[C@@H]1c1ccc(CO)cc1; 1.14
COc1ccc(COC(=O)NN=C2C[C@@H](O)[C@@H](O)[C@@H]3[C@@H]4C(=O)N(c5ccc(F)cc5F)C(=O)[C@@H]4CC[C@@H]23)cc1; 0.644
C[C@H](c1ccccc1)N1C(=O)[C@H]2[C@@H]3C(=CC[C@H]2C1=O)C(=O)[C@H]1O[C@H]1[C@H]3O; 0.494
COC(=O)CC=C[C@@H](C)[C@@H](C=NO[C@@H](C)c1cc(-c2c(C)cc(C)cc2C)no1)OC; -2.26
COC(=O)[C@H](C)NC(=O)[C@@H](C)CO; -0.489
C/C=C\[C@@H](NCc1ccccc1Br)[C@@H](O)Cc1ccccc1; -1.18

Incoming: Provide measured z-score value, entry: CC(C)CN1CCc2nc(-c3ccccc3)c3c(c2CC1)CO[C@@H](C)C3
Outgoing: -0.328

* * *

Measurement Target: Calmodulin-1 (Homo sapiens)
Method: calcium-bound CALM1 binders on microarrays, profiling panel, artefact control for SMM control-protein annotation, biochemical, small-molecule microarray, Cy5-labelled CALM1, plus calcium (AID 1112);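 also: score merges spot fluorescence with signal to noise from triplicate slides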
Run Conditions: Cy5-CALM1 binding fluorescence, higher = more signal
Can you tell me composite z-score for the items I'm about to list?
Give bare numbers.

Example compounds with recorded composite z-score:
C[N+](C)(C)CCCCCCNC(=O)[C@@H]1C[C@@H]2C(=O)N3CCC[C@H]3C(=O)N2[C@@H]1c1cccc(OCCO)c1; -1.07
CN1C(=O)[C@@]2(CCC(=O)OC(C)(C)C)N=C(c3ccc(OCCCO)cc3)O[C@H]2c2ccccc21; -0.304
COC(=O)CC1OC1[C@H](C)[C@@H](OC)C(C)C (some centres undefined); -1.26

Next compound, composite z-score to be filled in.
Incoming: Provide measured composite z-score value, entry: CO[C@@H]1COC(=O)CC=C[C@@H](C)[C@@H]2C=C[C@H](O)[C@@H](COC(=O)[C@H](C)NC(=O)CC=C[C@H]1C)O2
Outgoing: -1.99

* * *

Measurement Target: Fibroblast growth factor 2 (Homo sapiens)
Method: FGF2 binders on small-molecule microarrays, primary screen, biochemical, small-molecule microarray, 635/667 nm fluorescence (AID 1133)
Run Conditions: small-molecule microarray binding, FGF2, fluorescence 635/667; higher = more signal
Quantity Measured: composite z-score
Numbers only.

Record composite z-score per entry; entries follow.
1. CCOC(=O)[C@H](CC(C)C)NC(=O)CCC1CC(OC(=O)NCc2cccc3ccccc23)CC2(CCCC(COC(=O)NCCc3ccccc3OC)O2)O1 (some centres undefined)
2. CCOC(=O)[C@H](CC(C)C)NC(=O)CCC1CC(OC(=O)NCCc2ccc(F)cc2)CC2(CCCC(COC(=O)NCc3ccccc3)O2)O1 (some centres undefined)
3. CO[C@H]1COC(=O)[C@@H]2CCCN2C(=O)[C@@H](C)COC(=O)CC=C[C@@H]1C
4. Cc1cc2c(nc1C)CCCN2CC(O)CN1CCN(C)CC1 (centres undefined)
5. CCN1C(=O)[C@H]2[C@H]3[C@H](O)[C@H](O)CC(=NOCc4ccccc4)[C@H]3CC[C@H]2C1=O
6. [N-]=[N+]=NCc1ccccc1[C@@H]1OC(c2ccc(OCCCO)cc2)=N[C@]1(Cc1ccccc1)C(=O)N1CCOCC1
7. CC(=O)OC[C@H]1O[C@H](CCON=C(C)CCN2CCc3nc(-c4ccccc4)c(-c4ccccc4)cc3C2)C=C[C@@H]1OC(C)=O

Outgoing:
1. 0.485
2. 0.936
3. 1.46
4. 0.688
5. 0.22
6. 0.593
7. -0.138
